Data credit: patent US20260137698A1

The molecules listed here are annotated with their IC50.
Molecular target: CDK7/Cyclin H/MNAT1 (Homo sapiens)
Sequence (P50613 whole entry): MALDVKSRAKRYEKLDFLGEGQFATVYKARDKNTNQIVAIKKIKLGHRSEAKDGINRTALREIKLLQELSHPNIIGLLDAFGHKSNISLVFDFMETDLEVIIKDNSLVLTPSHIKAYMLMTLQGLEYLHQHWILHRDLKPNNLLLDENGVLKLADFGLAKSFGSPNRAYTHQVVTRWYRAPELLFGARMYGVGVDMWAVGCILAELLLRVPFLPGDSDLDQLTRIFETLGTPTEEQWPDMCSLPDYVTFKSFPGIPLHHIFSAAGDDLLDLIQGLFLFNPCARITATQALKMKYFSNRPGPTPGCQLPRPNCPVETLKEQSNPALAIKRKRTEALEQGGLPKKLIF
Sequence (P51946 whole entry partner): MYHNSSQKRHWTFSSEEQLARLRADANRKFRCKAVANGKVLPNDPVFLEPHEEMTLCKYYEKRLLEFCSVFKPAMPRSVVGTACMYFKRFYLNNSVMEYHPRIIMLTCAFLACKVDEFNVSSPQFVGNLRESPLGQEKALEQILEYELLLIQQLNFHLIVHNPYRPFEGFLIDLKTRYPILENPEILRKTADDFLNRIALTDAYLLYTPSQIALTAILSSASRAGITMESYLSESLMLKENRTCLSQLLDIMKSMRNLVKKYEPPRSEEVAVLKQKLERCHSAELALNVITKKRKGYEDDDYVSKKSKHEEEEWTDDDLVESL
Sequence (P51948 whole entry partner): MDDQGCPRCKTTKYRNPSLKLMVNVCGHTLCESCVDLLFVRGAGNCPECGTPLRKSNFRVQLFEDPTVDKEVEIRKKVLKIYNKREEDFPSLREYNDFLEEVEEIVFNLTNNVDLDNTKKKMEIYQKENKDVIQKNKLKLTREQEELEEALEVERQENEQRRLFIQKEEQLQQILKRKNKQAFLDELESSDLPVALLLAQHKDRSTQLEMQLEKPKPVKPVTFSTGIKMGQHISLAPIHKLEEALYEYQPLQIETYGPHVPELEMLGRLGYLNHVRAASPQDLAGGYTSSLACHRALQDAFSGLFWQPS
Assay: Inhibition of CDK7/Cyclin H/MNAT1 kinase activity (ADP-Glo)
Assay type: biochemical
Details: mean value from several measurements; read-out: IC50 CDK7/Cyclin H/MNAT

Answered cases to consult:
In [3]: df
Out[3]:
                    structure_smiles_string                      assayed_target  reported_property  assay_result
0  O=c1c2[nH]cc(-c3nc(N[C@H]4CCCNC4)ncc3C(F)(F)F)c2ccn1Cc1ccccc1  CDK7/Cyclin H/MNAT1 (Homo sapiens)               IC50        < 5 nM
1  CC(=O)Nc1ccccc1Nc1nc(N[C@H]2CCCNC2)ncc1C(F)(F)F  CDK7/Cyclin H/MNAT1 (Homo sapiens)               IC50    5 to 50 nM

Please state recorded IC50 (tested on CDK7/Cyclin H/MNAT1 (Homo sapiens)) of `FC(F)(F)c1cnc(N[C@H]2CCCNC2)nc1-c1c[nH]c(-c2nnnn2C2CC2)c1`
5 to 50 nM

Please state recorded IC50 (tested on CDK7/Cyclin H/MNAT1 (Homo sapiens)) of `O=C1c2[nH]cc(-c3nc(N[C@H]4CCC5(CC5)NC4)ncc3C(F)(F)F)c2CCCN1C1CC1`
< 5 nM

Please state recorded IC50 (tested on CDK7/Cyclin H/MNAT1 (Homo sapiens)) of `CN(C)C(=O)c1cc(-c2nc(N[C@H]3CCCNC3)ncc2C(F)(F)F)c[nH]1`
< 5 nM

Please state recorded IC50 (tested on CDK7/Cyclin H/MNAT1 (Homo sapiens)) of `FC(F)(F)c1cnc(N[C@H]2CCCNC2)nc1-n1nnc2ccccc21`
5 to 50 nM

Please state recorded IC50 (tested on CDK7/Cyclin H/MNAT1 (Homo sapiens)) of `Cn1cc(N2CCCc3c(-c4nc(N[C@H]5CCCNC5)ncc4C(F)(F)F)c[nH]c3C2=O)cn1`
5 to 50 nM

Please state recorded IC50 (tested on CDK7/Cyclin H/MNAT1 (Homo sapiens)) of `CN(C)C(=O)c1cc(-c2nc(N[C@H]3CCCNC3)ncc2C(F)(F)F)cn1C`
5 to 50 nM
